Entry source: the Immune Epitope Database (IEDB)

- targetOrTestSystem: HLA-A*02:12
- measurementProtocol: IEDB peptide-MHC binding, purified MHC/competitive/fluorescence; filed as Kd, often an IC50 or EC50 that approximates it; bounds were set here for any values at or beyond the usual limits of such assays
- measurementContext: source organism: Burkholderia pseudomallei K96243
valueKind: Kd

> print(dat)
   primarysequence   result
1        DELWRGLLA  ≥ 20 µM

###

- targetOrTestSystem: HLA-B*07:02
- measurementProtocol: IEDB peptide-MHC binding, purified MHC/direct/fluorescence; filed as Kd, often an IC50 or EC50 that approximates it; bounds were set here for any values at or beyond the usual limits of such assays
- measurementContext: source organism: Pseudomonas tolaasii
valueKind: Kd

> print(dat)
   primarysequence   result
1        AEGTGITHL  ≥ 20 µM

###

Kd reference
- targetOrTestSystem: HLA-B*15:01
- measurementProtocol: IEDB peptide-MHC binding, purified MHC/competitive/radioactivity; filed as Kd, often an IC50 or EC50 that approximates it; bounds were set here for any values at or beyond the usual limits of such assays
- measurementContext: source organism: Dengue virus 2 Jamaica/1409/1983
valueKind: Kd

> print(dat)
   primarysequence  targetortestsystem   result
1       ILAAVSVSPL         HLA-B*15:01  28.9 nM
2       TVIDLDPIPY         HLA-B*15:01  1.83 nM

###

- targetOrTestSystem: HLA-B*58:01
- measurementProtocol: IEDB peptide-MHC binding, purified MHC/direct/fluorescence; filed as Kd, often an IC50 or EC50 that approximates it; bounds were set here for any values at or beyond the usual limits of such assays
- measurementContext: source organism: Escherichia coli O157:H7
pKd: −log10 of the molar value.
valueKind: pKd

> print(dat)
   primarysequence  result
1        LPPERRQPF  ≤ 4.70
2        RRNDVARIF  ≤ 4.70

###

- targetOrTestSystem: HLA-A*01:01
- measurementProtocol: IEDB peptide-MHC binding, purified MHC/direct/fluorescence; filed as Kd, often an IC50 or EC50 that approximates it; bounds were set here for any values at or beyond the usual limits of such assays
- measurementContext: source organism: SARS-CoV1
valueKind: Kd (nM)

> print(dat)
   primarysequence  numericvalue
1        NQDLNGNWY           282

###

- targetOrTestSystem: HLA-A*02:16
- measurementProtocol: IEDB peptide-MHC binding, purified MHC/competitive/fluorescence; filed as Kd, often an IC50 or EC50 that approximates it; bounds were set here for any values at or beyond the usual limits of such assays
- measurementContext: source organism: Shigella boydii CDC 3083-94
valueKind: Kd

> print(dat)
   primarysequence  valuekind   result
1        RNNDPTLPY         Kd  ≥ 20 µM

###

- targetOrTestSystem: HLA-A*02:06
- measurementProtocol: IEDB peptide-MHC binding, purified MHC/competitive/radioactivity; filed as Kd, often an IC50 or EC50 that approximates it; bounds were set here for any values at or beyond the usual limits of such assays
- measurementContext: source organism: Dengue virus 2 Jamaica/1409/1983
pKd: −log10 of the molar value.
pKd reference
valueKind: pKd

> print(dat)
   primarysequence  numericvalue
1       STIPETILEL          7.10
2       LLLLVAHYAI          7.27
3       LSVSLVLVGV          7.12
4       GQIDNFSLGV          8.25
5       KVSCTILAAV          7.90
6        GTFHTMWHV          8.13
7       FSLGVLGMAL          8.46

###

- targetOrTestSystem: HLA-A*01:01
- measurementProtocol: IEDB peptide-MHC binding, purified MHC/direct/fluorescence; filed as Kd, often an IC50 or EC50 that approximates it; bounds were set here for any values at or beyond the usual limits of such assays
- measurementContext: source organism: Haemophilus influenzae
pKd: −log10 of the molar value.
valueKind: pKd

> print(dat)
   primarysequence  targetortestsystem  result
1        FLADYRGKT         HLA-A*01:01  ≤ 4.70

###

- targetOrTestSystem: HLA-B*18:01
- measurementProtocol: IEDB peptide-MHC binding, purified MHC/competitive/radioactivity; filed as Kd, often an IC50 or EC50 that approximates it; bounds were set here for any values at or beyond the usual limits of such assays
- measurementContext: source organism: SARS coronavirus Tor2
pKd: −log10 of the molar value.
valueKind: pKd

> print(dat)
   primarysequence  valuekind  qual  numericvalue
1       TEAFEKMVSL        pKd     =          5.81
2        GETALALLL        pKd     ≤          4.64
3       REMLAHAEET        pKd     =          5.99
4        SEGVPDLLV        pKd     ≤          4.11
5        TEHSWNADL        pKd     =          5.08
6        VELKHFFFA        pKd     =          5.77
7       VEYYPLLFIT        pKd     =          5.08

###

- targetOrTestSystem: HLA-B*44:02
- measurementProtocol: IEDB peptide-MHC binding, purified MHC/direct/fluorescence; filed as Kd, often an IC50 or EC50 that approximates it; bounds were set here for any values at or beyond the usual limits of such assays
- measurementContext: source organism: Influenza A virus (A/Ck/HK/2133.1/2003(H5N1))
valueKind: Kd

> print(dat)
   primarysequence  valuekind   result
1        SADPLASLL         Kd  ≥ 20 µM

###

- targetOrTestSystem: HLA-B*08:01
- measurementProtocol: IEDB peptide-MHC binding, purified MHC/direct/fluorescence; filed as Kd, often an IC50 or EC50 that approximates it; bounds were set here for any values at or beyond the usual limits of such assays
- measurementContext: source organism: Vibrio cholerae V52
pKd: −log10 of the molar value.
valueKind: pKd

> print(dat)
   primarysequence  numericvalue
1        FIRWRFYLL          6.67

###

- targetOrTestSystem: HLA-C*12:03
- measurementProtocol: IEDB peptide-MHC binding, purified MHC/direct/fluorescence; filed as Kd, often an IC50 or EC50 that approximates it; bounds were set here for any values at or beyond the usual limits of such assays
- measurementContext: source organism: Burkholderia mallei GB8 horse 4
pKd: −log10 of the molar value.
valueKind: pKd

> print(dat)
   primarysequence  targetortestsystem  result
1        WAWPFAAVL         HLA-C*12:03  ≥ 9.00

###

- targetOrTestSystem: HLA-A*68:02
- measurementProtocol: IEDB peptide-MHC binding, purified MHC/direct/fluorescence; filed as Kd, often an IC50 or EC50 that approximates it; bounds were set here for any values at or beyond the usual limits of such assays
- measurementContext: source organism: Rickettsia sibirica 246
valueKind: Kd

> print(dat)
   primarysequence  valuekind   result
1        APVESMALF         Kd  ≥ 20 µM

###

- targetOrTestSystem: HLA-A*24:02
- measurementProtocol: IEDB peptide-MHC binding, purified MHC/competitive/radioactivity; filed as Kd, often an IC50 or EC50 that approximates it; bounds were set here for any values at or beyond the usual limits of such assays
- measurementContext: source organism: Homo sapiens
valueKind: Kd (nM)

> print(dat)
   primarysequence  numericvalue
1        NYPLWSQSY           363

###

pKd reference
- targetOrTestSystem: HLA-B*35:01
- measurementProtocol: IEDB peptide-MHC binding, purified MHC/competitive/radioactivity; filed as Kd, often an IC50 or EC50 that approximates it; bounds were set here for any values at or beyond the usual limits of such assays
- measurementContext: source organism: Dengue virus 1 Brazil/97-11/1997
pKd: −log10 of the molar value.
valueKind: pKd

> print(dat)
   primarysequence  valuekind  numericvalue
1       HPASAWTLYA        pKd          6.24
2        NATDTWVTY        pKd          7.68
3       HPGFTVIALF        pKd          7.00

###

- targetOrTestSystem: HLA-B*15:17
- measurementProtocol: IEDB peptide-MHC binding, purified MHC/direct/fluorescence; filed as Kd, often an IC50 or EC50 that approximates it; bounds were set here for any values at or beyond the usual limits of such assays
- measurementContext: source organism: Entamoeba histolytica
pKd: −log10 of the molar value.
valueKind: pKd

> print(dat)
   primarysequence  valuekind  result
1        DFGYATMAK        pKd  ≤ 4.70
